ASSAY_REMARKS: Study BP40387 Part 1 (SAD) pharmacokinetics, healthy participants
Assay type: in vivo, human
PARTICULARS: both sexes, human, plasma; single oral 30 mg, fasted, geo mean
OBSERVATION_TYPE: AUC (ng·h/mL)
Number only, in ng·h/mL; omit the unit.

Give the value of AUC reported for the following: Cn1nnnc1Cn1nnc2c(N3CC[C@H](O)C3)nc(C(C)(C)C)nc21 [RO6868847]
3530

---

ASSAY_REMARKS: clinical
PARTICULARS: both, human, plasma, oral, 300 mg
OBSERVATION_TYPE: half-life (h)
Number only, in h; omit the unit.

Give the value of half-life reported for the following: Cn1nnnc1Cn1nnc2c(N3CC[C@H](O)C3)nc(C(C)(C)C)nc21 [RO6868847]
39

---

ASSAY_REMARKS: clinical
PARTICULARS: both, human, plasma, oral, 60 mg
OBSERVATION_TYPE: Cmax
Write your answer as a measured quantity: the number, then the unit.

Give the value of Cmax reported for the following: `Cn1nnnc1Cn1nnc2c(N3CC[C@H](O)C3)nc(C(C)(C)C)nc21`
0.899 µg/mL

---

TESTED_ON: human CB1 (Homo sapiens, UniProt P21554)
Sequence (P21554 whole entry): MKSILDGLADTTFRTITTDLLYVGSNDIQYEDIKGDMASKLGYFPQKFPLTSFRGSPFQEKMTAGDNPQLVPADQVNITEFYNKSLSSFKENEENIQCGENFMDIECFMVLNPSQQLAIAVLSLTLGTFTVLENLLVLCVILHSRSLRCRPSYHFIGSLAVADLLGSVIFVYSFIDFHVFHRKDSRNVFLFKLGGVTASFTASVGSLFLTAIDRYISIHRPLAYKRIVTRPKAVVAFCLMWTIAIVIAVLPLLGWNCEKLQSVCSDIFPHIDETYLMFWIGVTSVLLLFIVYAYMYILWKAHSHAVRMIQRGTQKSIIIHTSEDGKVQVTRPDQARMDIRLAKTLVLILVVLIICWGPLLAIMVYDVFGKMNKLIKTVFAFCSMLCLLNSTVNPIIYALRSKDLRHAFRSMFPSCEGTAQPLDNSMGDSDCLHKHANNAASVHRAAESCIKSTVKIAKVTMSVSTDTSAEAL
ASSAY_REMARKS: Human CB1 cAMP assay
Assay type: cell-based
pEC50: −log10 of the molar value.
OBSERVATION_TYPE: pEC50

Give the value of pEC50 reported for the following: `Cn1nnnc1Cn1nnc2c(N3CC[C@H](O)C3)nc(C(C)(C)C)nc21`
< 5.00

---

ASSAY_REMARKS: Study BP40387 Part 1 (SAD) pharmacokinetics, healthy participants
Assay type: in vivo, human
PARTICULARS: both sexes, human, plasma; single oral 100 mg, fasted, geo mean; read-out: t1/2 (converted)
OBSERVATION_TYPE: half-life (h)
Number only, in h; omit the unit.

Give the value of half-life reported for the following: `Cn1nnnc1Cn1nnc2c(N3CC[C@H](O)C3)nc(C(C)(C)C)nc21`
14.6

---

System: LPS-induced G-CSF, IFNγ, IL1β and TNFα levels in whole blood
ASSAY_REMARKS: In vitro LPS whole blood challenge assay
Type: cell-based, human
PARTICULARS: Homo sapiens, HV; 3/8; read-out: IC50 (TNFα)/μM
OBSERVATION_TYPE: IC50 (µM)
Number only, in µM; omit the unit.

Give the value of IC50 reported for the following: `Cn1nnnc1Cn1nnc2c(N3CC[C@H](O)C3)nc(C(C)(C)C)nc21`
7

---

TESTED_ON: CB2 (Rattus norvegicus, UniProt Q9QZN9)
Sequence (Q9QZN9 whole entry): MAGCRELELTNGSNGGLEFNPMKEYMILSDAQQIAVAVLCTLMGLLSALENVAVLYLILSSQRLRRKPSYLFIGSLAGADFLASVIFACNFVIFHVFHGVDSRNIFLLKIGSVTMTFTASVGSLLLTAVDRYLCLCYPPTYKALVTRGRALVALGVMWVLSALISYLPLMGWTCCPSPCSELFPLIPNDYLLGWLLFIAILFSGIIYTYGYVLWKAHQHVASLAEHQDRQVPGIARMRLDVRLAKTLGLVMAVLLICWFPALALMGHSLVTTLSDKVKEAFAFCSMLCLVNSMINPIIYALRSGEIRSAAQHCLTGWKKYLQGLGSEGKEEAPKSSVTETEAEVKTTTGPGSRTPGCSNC
ASSAY_REMARKS: In vitro rat Ki
Type: binding
PARTICULARS: rat
OBSERVATION_TYPE: pKi
Here pKi is given on a logarithmic scale as minus log10 of the concentration in mol/L.

Give the value of pKi reported for the following: `Cn1nnnc1Cn1nnc2c(N3CC[C@H](O)C3)nc(C(C)(C)C)nc21`
7.48

---

ASSAY_REMARKS: Study BP40387 Part 1 (SAD) pharmacokinetics, healthy participants
Format: in vivo, human
PARTICULARS: both sexes, human, plasma; single oral 10 mg, fasted, geo mean
OBSERVATION_TYPE: AUC (ng·h/mL)
Number only, in ng·h/mL; omit the unit.

Give the value of AUC reported for the following: Cn1nnnc1Cn1nnc2c(N3CC[C@H](O)C3)nc(C(C)(C)C)nc21 [RO6868847]
972

---

ASSAY_REMARKS: Study BP40387 Part 1 (SAD) pharmacokinetics, healthy participants
Assay type: in vivo, human
PARTICULARS: both sexes, human, plasma; single oral 300 mg, fasted, geo mean
OBSERVATION_TYPE: Cmax (ng/mL)
Number only, in ng/mL; omit the unit.

Give the value of Cmax reported for the following: Cn1nnnc1Cn1nnc2c(N3CC[C@H](O)C3)nc(C(C)(C)C)nc21 [RO6868847]
2500

---

ASSAY_REMARKS: Study BP40387 Part 1 (SAD) pharmacokinetics, healthy participants
Format: in vivo, human
PARTICULARS: both sexes, human, plasma; single oral 0.75 mg, fasted, geo mean; read-out: t1/2 (converted)
Description: In Part 1 (SAD) of Study BP40387, in the fasted state, RO6868847 was overall rapidly absorbed; however, the Tmax appeared to shift with increasing dose. Individual Tmax ranged between 1 to 6 hours at 100 mg and 300 mg RO6868847.
OBSERVATION_TYPE: half-life (min)
Number only, in min; omit the unit.

Give the value of half-life reported for the following: `Cn1nnnc1Cn1nnc2c(N3CC[C@H](O)C3)nc(C(C)(C)C)nc21`
413

---

ASSAY_REMARKS: clinical
PARTICULARS: both, human, plasma, oral, 300 mg
OBSERVATION_TYPE: Tmax (h)
Number only, in h; omit the unit.

Give the value of Tmax reported for the following: `Cn1nnnc1Cn1nnc2c(N3CC[C@H](O)C3)nc(C(C)(C)C)nc21`
2.5

---

TESTED_ON: human CB2 (Homo sapiens, UniProt P34972)
Construct: expressed in transfected cells; host or cells: CHO cells
Sequence (P34972 whole entry): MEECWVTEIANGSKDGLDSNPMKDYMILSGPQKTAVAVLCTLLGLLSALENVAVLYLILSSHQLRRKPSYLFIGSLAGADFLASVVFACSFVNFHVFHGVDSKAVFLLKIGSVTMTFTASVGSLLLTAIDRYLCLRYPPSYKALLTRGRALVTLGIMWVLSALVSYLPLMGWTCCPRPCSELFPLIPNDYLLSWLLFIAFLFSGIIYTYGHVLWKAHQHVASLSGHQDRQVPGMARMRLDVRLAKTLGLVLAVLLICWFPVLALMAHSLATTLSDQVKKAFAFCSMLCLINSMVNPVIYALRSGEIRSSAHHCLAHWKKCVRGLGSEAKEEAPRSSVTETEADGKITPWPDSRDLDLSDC
ASSAY_REMARKS: Radioligand binding to CB2, U698M cells expressing endogenous CB2
OBSERVATION_TYPE: pKi
Here pKi is given on a logarithmic scale as minus log10 of the concentration in mol/L.

Provide the reported pKi (system: human CB2 (Homo sapiens, UniProt P34972)) for `Cn1nnnc1Cn1nnc2c(N3CC[C@H](O)C3)nc(C(C)(C)C)nc21`
7.20

---

ASSAY_REMARKS: Study BP40387 Part 1 (SAD) pharmacokinetics, healthy participants
Format: in vivo, human
PARTICULARS: both sexes, human, plasma; single oral 3.0 mg, fasted, geo mean; read-out: t1/2 (converted)
OBSERVATION_TYPE: half-life (h)
Number only, in h; omit the unit.

Give the value of half-life reported for the following: `Cn1nnnc1Cn1nnc2c(N3CC[C@H](O)C3)nc(C(C)(C)C)nc21`
7.99

---

ASSAY_REMARKS: clinical
PARTICULARS: both, human, plasma, oral, 6 mg
OBSERVATION_TYPE: Cmax
Write your answer as a measured quantity: the number, then the unit.

Give the value of Cmax reported for the following: `Cn1nnnc1Cn1nnc2c(N3CC[C@H](O)C3)nc(C(C)(C)C)nc21`
97.9 ng/mL

---

ASSAY_REMARKS: Study BP40387 Part 1 (SAD) pharmacokinetics, healthy participants
Type: in vivo, human
PARTICULARS: both sexes, human, plasma; single oral 10 mg, fasted, geo mean; read-out: t1/2 (converted)
OBSERVATION_TYPE: half-life (h)
Number only, in h; omit the unit.

Give the value of half-life reported for the following: Cn1nnnc1Cn1nnc2c(N3CC[C@H](O)C3)nc(C(C)(C)C)nc21 [RO6868847]
6.95

---

TESTED_ON: human CB1 (Homo sapiens)
ASSAY_REMARKS: Human CB1 cAMP assay
OBSERVATION_TYPE: IC50

Give the value of IC50 reported for the following: Cn1nnnc1Cn1nnc2c(N3CC[C@H](O)C3)nc(C(C)(C)C)nc21 [RO6868847]
> 10 µM

---

ASSAY_REMARKS: Study BP40387 Part 1 (SAD) pharmacokinetics, healthy participants
Type: in vivo, human
PARTICULARS: both sexes, human, plasma, po, 3 mg, single oral 3.0 mg, fasted, median; read-out: Tmax
OBSERVATION_TYPE: Tmax (h)
Number only, in h; omit the unit.

Give the value of Tmax reported for the following: `Cn1nnnc1Cn1nnc2c(N3CC[C@H](O)C3)nc(C(C)(C)C)nc21`
1

---

ASSAY_REMARKS: Study BP40387 Part 1 (SAD) pharmacokinetics, healthy participants
Assay type: in vivo, human
PARTICULARS: both sexes, human, plasma; single oral 0.75 mg, fasted, geo mean
OBSERVATION_TYPE: AUC
Write your answer as a measured quantity: the number, then the unit.

Give the value of AUC reported for the following: `Cn1nnnc1Cn1nnc2c(N3CC[C@H](O)C3)nc(C(C)(C)C)nc21`
112 ng·h/mL

---

ASSAY_REMARKS: Study BP40387 Part 2 (FE) food effect on pharmacokinetics
Assay type: in vivo, human
PARTICULARS: both sexes, human, plasma, oral, 100 mg, 100 mg single dose, fasted state; read-out: Median Tmax
OBSERVATION_TYPE: Tmax (h)
Number only, in h; omit the unit.

Give the value of Tmax reported for the following: `Cn1nnnc1Cn1nnc2c(N3CC[C@H](O)C3)nc(C(C)(C)C)nc21`
3

---

ASSAY_REMARKS: Study BP40387 Part 1 (SAD) pharmacokinetics, healthy participants
Format: in vivo, human
PARTICULARS: both sexes, human, plasma, po, 0.75 mg, single oral 0.75 mg, fasted, median; read-out: Tmax
OBSERVATION_TYPE: Tmax
Write your answer as a measured quantity: the number, then the unit.

Give the value of Tmax reported for the following: Cn1nnnc1Cn1nnc2c(N3CC[C@H](O)C3)nc(C(C)(C)C)nc21 [RO6868847]
1 h
